# measured on: Nuclear receptor subfamily 1 group D member 1 (Homo sapiens)
# test description: modulators of Rev-erb alpha DNA binding, primary screen, biochemical, FITC-DNA, fluorescence polarization, uHTS (AID 1259318);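 note: 0% = DMSO wells with 35 nM protein and 100% = DMSO wells with 750 nM protein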
# experimental parameters: Rev-erbα–FITC-DNA binding, 90 min, at 10 µM
About 3,000 (0.81%) of roughly 370,000 compounds were called active.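 Rule for the calls: active = activity above about 14% (limit read from the data; passing the limit was not always enough); inactive = the rest.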 Only a selection was taken, and actives are over-represented in it overall.
Hi there, use one of these labels in your reply, thanks! active, inactive

For orientation, consider the following solved cases.
                                   compound  group_label
0  CCCc1nc(SCC(=O)Nc2ccc(S(=O)(=O)N(C)C)cc2)c2ccccc2n1       active
1  Cc1ccc(S(=O)(=O)N(Cc2cc3ccccc3[nH]c2=O)CC2CCCO2)cc1 (stereo not given)     inactive

Q. I'd appreciate the recorded outcome for "COC(=O)c1ccccc1N=Nc1c(C)[nH][nH]c1=O" from this test.
A. inactive

Q. Call for entry "CC[C@H](NC(=O)[C@H](Cc1ccccc1)NC(=O)[C@H]1O[C@@H](n2cnc3c(=O)[nH]c(N)nc32)[C@H](O)[C@@H]1O)c1ccccc1" :
A. inactive

Q. Field: outcome | Entry: "CCCCCC(=O)Nc1ccc(-c2cn3cccnc3n2)cc1"
A. inactive

###

# measured on: Nuclear receptor subfamily 1 group D member 1 (Homo sapiens)
# test description: modulators of Rev-erb alpha DNA binding, primary screen, biochemical, FITC-DNA, fluorescence polarization, uHTS (AID 1259318);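 note: 0% = DMSO wells with 35 nM protein and 100% = DMSO wells with 750 nM protein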
# experimental parameters: Rev-erbα–FITC-DNA binding, 90 min, at 10 µM, stronger effect = higher value
Hit rate of the full screen: of about 370,000 compounds, about 3,000 (0.81%) were called active. Only a selection was taken, and actives are over-represented in it overall.
reported endpoint: activity (%)
// return numeric value only (unit: %, not printed)

Q. Requested field: activity. Item: CCOc1ccc(C2NC(=S)NC3=C2CCc2ccccc23)cc1 (stereo unspecified)
A. 7.82

Q. What value of measured activity is listed for "COc1ccc(S(=O)(=O)N2CCOCC2)cc1NC(=O)CSc1ncnc2ccccc12" ?
A. -2.02

Q. Quick one: activity of CCc1ccc2c(c1)NC(=O)C2(C)Cc1ccc(OC(F)(F)F)cc1 (stereo unspecified) ?
A. 4.7

Q. Name the recorded activity for "CC(C)CCn1c(=O)c2c(nc3n2CCCN3Cc2ccccc2)n(C)c1=O" .
A. -1.34

Q. Returns the measured activity for the input compound. Input: "Cc1ccn2c(=O)nc(SCC(=O)NCc3ccc(F)cc3)nc2c1"
A. 10.3

Q. If you can, please state the reported activity value of CC(C)C(C#CC1CC1)N(Cc1ccc2c(c1)OCO2)C(N)=NC(=O)/C=C/c1cccc(C(F)(F)F)c1 (stereo unspecified) .
A. -2.7

Q. Can you look up the measured activity of FC(F)(F)c1cccc(NC(=S)OC2CCC23CCC(c2ccccc2)CC3)c1 (stereo unspecified) for me?
A. 5.79

Q. Can you share its activity? I mean this compound: "Cc1cc(Cl)ccc1NNC(=O)c1snnc1C"
A. 3.67

###

Measured activity by item
# measured on: Nuclear receptor subfamily 1 group D member 1 (Homo sapiens)
# test description: modulators of Rev-erb alpha DNA binding, primary screen, biochemical, FITC-DNA, fluorescence polarization, uHTS (AID 1259318);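 note: 0% = DMSO wells with 35 nM protein and 100% = DMSO wells with 750 nM protein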
# experimental parameters: Rev-erbα–FITC-DNA binding, 90 min, at 10 µM, stronger effect = higher value
The whole screen tested about 370,000 compounds, of which about 3,000 (0.81%) were called active. For the sample, actives were picked, then their nearest neighbours and some compounds at random.
I only need the number, in %, no unit after it.

Solved cases below.
>>> df
                                   molecule  recorded_number
0       CCn1c(SCC(C)=O)nc2sc3c(c2c1=O)CCCC3            -1.07
1  Cc1cc(NC(=O)CSc2nc(=O)cc(N)n2-c2ccc(F)cc2)no1            -4.08
2  CCOc1ccccc1N1CCN(C(=S)Nc2ccc(S(N)(=O)=O)cc2)CC1            -6.97
3  Cc1cc(NC(=O)Cn2nc(C(F)(F)F)c3c2CCCC3)no1            -1.28
4  O=C(O)C1=CCCN(CCON=C(c2ccccc2)c2ccccc2)C1            -6.65

Q. What value of activity has been reported for the following molecule? "CCN(CC)c1ccc(/C=N/NC(=O)CNC(=O)c2cccs2)cc1"
A. 0.7

Q. Any idea what its activity is? The molecule is "Cc1ccc(C(=O)C2CCN(CC(=O)NCCC(C)C)CC2)cc1"
A. -0.72

Q. Endpoint output: activity of "O=c1cc(Cl)c2ccccc2n1-c1ccccc1" . Value?
A. -2.63

Q. Given the molecule "COc1cc2c(cc1NC(=O)CN1CCN(S(=O)(=O)c3ccc(F)cc3)CC1)oc1ccccc12" , what is its reported activity?
A. 14.1

Q. I would be grateful if you could share the reported activity for "CC/C(=C(/c1ccccc1)c1ccc(OCC[N+](C)(C)C)cc1)c1ccccc1" .
A. -1.77

Q. What does the record list as activity for "C[C@@H]1CN([C@@H](C)CO)S(=O)(=O)c2ccc(C#Cc3cccc(F)c3)cc2O[C@H]1CN(C)S(=O)(=O)c1cn(C)cn1" ?
A. 4.67

Q. # input molecule: "CCN(CC)c1ccc2cc(C(N)=O)/c(=N\NC(=O)c3ccncc3)oc2c1" ; wanted: its activity
A. 35.1

Q. Any idea what activity was measured for "C#CCN(N(C)c1ncc(C(F)(F)F)cc1Cl)S(=O)(=O)c1ccc2ccccc2c1" ?
A. 7.14

Q. Need activity of "c1cncc(CNc2ccnc(-c3ccc4c(c3)OCO4)n2)c1" , thanks.
A. 3.58

Q. Find the recorded activity belonging to "COc1cc2c(cc1NC(=O)COC(=O)/C=C/c1ccccc1)oc1ccccc12" and report it.
A. -1.34

Q. Would you kindly share the measured activity for Cc1cc(NC(=O)CSc2nc(C(C)C)nc3sc4c(c23)CCC(C)C4)no1 (stereo unspecified) ?
A. 58.2

Q. Would you mind telling me what activity value was observed for "COc1ccc(-n2c(COc3ccc(C)cc3)nnc2SCC(=O)Nc2ccc(Oc3ccccc3)cc2)cc1" ?
A. -3.25

Q. What does the record list as activity for "Cc1ccc(S(=O)(=O)c2c[nH]c3ccc(Cl)cc3c2=O)cc1" ?
A. 136

Q. Dear colleague, I am looking for the recorded activity of the following molecule: "CCN(CC)c1ccc(NC(=O)CN2CCN(c3ccccn3)CC2)cc1"
A. -0.51

Q. Reported activity for O=C(Nc1ccc(F)cc1)C1CCCN(S(=O)(=O)c2ccc(-n3cnnn3)cc2)C1 (stereo unspecified) : what is it?
A. 4.65

Q. activity lookup needed for "Cn1cnc([N+](=O)[O-])c1Sc1n[nH]c(N)n1" , thanks.
A. -0.66
